assay: qHTS assay to identify small molecule agonists of the estrogen receptor beta (ER-beta) signaling pathway - cell viability counter screen (AID 1259380); details: ER-beta-bla HEK293T viability, CellTiter-Glo luminescence, 16 h; series mostly up to 92.4 µM; also: nearly all actives have a fitted effect of over 30% in size
Results filed as inconclusive are left out. The source made the active and inactive calls. Calls follow the shape of the dose curve; as a rule, active = well fitted cell-killing curve with a large enough effect in the repeat runs; inconclusive = weak or mixed curves, or effect the other way; inactive = flat fitted curve, though single readings scatter.
Possible outcomes: active, inactive

| compound | assigned category |
| --- | --- |
| CN(C)c1nc(N(C)C)nc(N(C)C)n1 | inactive |
| CCCCCCCCCC(=O)OC | inactive |
| Cc1ncc[nH]1 | inactive |
| Cc1ccc(C)c(O)c1C | inactive |
| Oc1ccc(O)cc1 | inactive |
| Nc1ccccc1N | inactive |
| Nc1ccc(Cl)cc1Cl | inactive |
| O=C(OCc1ccccc1)c1ccccc1O | inactive |
| O=C(O)c1ccccc1Nc1cccc(C(F)(F)F)c1 | active |
| Nc1ccc(S(=O)(=O)Nc2cnc3ccccc3n2)cc1 | inactive |
| C/C=C/C(=O)O | inactive |
| CC(C)=CCCC(C)CCO (stereo not drawn) | inactive |
| O=C(c1ccccc1)c1ccccc1O | inactive |
| NNc1ccc(C(=O)O)cc1 | inactive |
| CCCCC(CC)COC(=O)c1ccc(N(C)C)cc1 (stereo not drawn) | inactive |
| O=CCc1ccccc1 | inactive |
| CC(C)=CCC/C(C)=C\CO | inactive |
| OC(CCl)CCl | inactive |

FYI, the data here is from PubChem BioAssay (Tox21).
